MEASURED ON: VIM-1 (Pseudomonas aeruginosa, UniProt A0A0F7KYQ8)
TEST METHOD NOTES: Enzyme activity: determination of IC50, fluorescence assay with CCF2-FA substrate
Format: biochemical
APPLIED CONDITIONS: VIM-1 enzyme 30 pM, CCF2-FA 1.25 μM, 2 hours at 25° C.; read-out: VIM1 IC50
# key: entry, value: log10(IC50)
ENDPOINT LABEL: log10(IC50) (log10 of the value in nM)

compound=CCC[C@H](C(=O)[O-])[C@H](Cc1cc[n+](C)cc1)c1nnn[nH]1 endpoint_label=log10(IC50) experimental_value=1.65
compound="CC(C)(C)C(C(=O)O)[C@H](Cc1ccc(Br)s1)c1nnn[nH]1 (stereo partly shown)" endpoint_label=log10(IC50) experimental_value=1.69
compound=O=C(O)[C@@H](CCCC1CCNCC1)[C@H](Cc1ccc(C2=CCNC2)cc1)c1nnn[nH]1 endpoint_label=log10(IC50) experimental_value=1.00
compound=CC(C)C[C@H](C(=O)O)[C@H](Cc1ccc(Oc2ccnc(N3CCNCC3)c2)nc1)c1nn[nH]n1 endpoint_label=log10(IC50) experimental_value=0.85
compound="CC(C)C[C@H](C(=O)O)[C@H](Cc1ccc(N2CCC(O)C2)nc1)c1nnn[nH]1 (stereo partly shown)" endpoint_label=log10(IC50) experimental_value=0.58
compound=CCC[C@H](C(=O)O)[C@H](Cc1ccc(-c2cnc(C)c(C)n2)cc1)c1nnn[nH]1 endpoint_label=log10(IC50) experimental_value=0.68
compound="CNC(=O)C1CCN(c2ccc(C[C@H](c3nnn[nH]3)[C@H](CC(C)C)C(=O)O)cn2)C1 (stereo partly shown)" endpoint_label=log10(IC50) experimental_value=1.08
compound=CCC[C@H](C(=O)O)[C@H](Cc1ccc(-c2ccc(CC3CCNCC3)cc2)cc1)c1nn[nH]n1 endpoint_label=log10(IC50) experimental_value=1.49
compound=CCC[C@H](C(=O)O)[C@H](Cc1cccnc1)c1nnn[nH]1 endpoint_label=log10(IC50) experimental_value=1.20
compound="CCC[C@H](C(=O)O)[C@H](Cc1ccc(C2CCNCC2O)cc1)c1nnn[nH]1 (mixture of isomers)" endpoint_label=log10(IC50) experimental_value=1.32
compound="CC(C)(C)C(C(=O)O)[C@H](Cc1ccc(C2CCNC2)nc1)c1nnn[nH]1.O=C(O)C(F)(F)F (stereo partly shown) [Example 430, 2,2,2-trifluoroacetate]" endpoint_label=log10(IC50) experimental_value=1.72
compound=CCC[C@H](C(=O)O)[C@H](Cc1ccc(-c2cnc(CO)s2)cc1)c1nnn[nH]1 endpoint_label=log10(IC50) experimental_value=0.28
compound=CC(C)C[C@H](C(=O)O)[C@H](Cc1ccc(N2CC(N)C2)nc1)c1nnn[nH]1 endpoint_label=log10(IC50) experimental_value=1.23
compound=CCC[C@H](C(=O)O)[C@H](Cc1ccc(C(=O)N2CCC(N)CC2)cc1)c1nnn[nH]1 endpoint_label=log10(IC50) experimental_value=2.08
compound=CCC[C@H](C(=O)O)[C@H](Cc1cccc(N2CCN(C(C)=O)CC2)c1)c1nn[nH]n1 endpoint_label=log10(IC50) experimental_value=1.30
compound=CCC[C@H](C(=O)O)[C@H](Cc1ccc(Cl)cc1)c1nnn[nH]1 endpoint_label=log10(IC50) experimental_value=0.38

From: patent US9839642B2
